- assayProcedure: Solubility in water, at 20 degrees Centigrade.
- Type: physicochemical
- cond: water; read-out: Solubility
parameter: solubility (mM)
Hi! Could you send only the number? It should be in mM, unit omitted.

Br.N[C@@H](Cc1ccccc1)C(=O)Nc1nnc(S(N)(=O)=O)s1 :: 132
CC(C)COC(=O)Nc1nnc(S(N)(=O)=O)s1 :: 103
Br.NCC(=O)Nc1nnc(S(N)(=O)=O)s1 :: 896

Incoming: Need solubility of Br.C[C@H](N)C(=O)Nc1nnc(S(N)(=O)=O)s1 , thanks.
Outgoing: 701

---

In what follows, each item is paired with its IC50 for Carbonic anhydrase (Bos taurus, UniProt P00921+Q95323+P18915+Q3SZX4).
Give the quantity in nM, number only.

Record excerpt, results attached:
Br.C[C@H](N)C(=O)Nc1nnc(S(N)(=O)=O)s1 :: 9
Br.N[C@@H](Cc1ccccc1)C(=O)Nc1nnc(S(N)(=O)=O)s1 :: 30
NS(=O)(=O)c1nnc(NC(=O)CNC(=O)OCc2ccccc2)s1 :: 8
NS(=O)(=O)c1nnc(NC(=O)[C@H](Cc2ccccc2)NC(=O)OCc2ccccc2)s1 :: 5

Incoming: Query (compound): C[C@H](NC(=O)OCc1ccccc1)C(=O)Nc1nnc(S(N)(=O)=O)s1 ; field requested: IC50
Outgoing: 7
